Test system: HOP-62 NSCLC
measurement description: NCI tumour cell line growth inhibition, 48 h
recorded endpoint: TGI

> print(dat)
                                    compound  recorded.endpoint  data.value
 1  O=C1NC2(CN3CCC2CC3)C(=O)N1CN(Cc1ccccc1)c1ccccc1 (stereo not drawn)                TGI    > 100 µM
 2      CSc1cc(N)ccc1N=Nc1ccc(S(N)(=O)=O)cc1                TGI       79 µM
 3  COc1cc2c(/C=C3/C(=O)N(c4ccccc4)c4ccccc43)c(Cl)[nH]c2cc1C                TGI   > 23.6 µM
 4  O=c1[nH]c(N/N=C\C(O)C(O)C(O)CO)nc2ccccc12 (stereo not drawn)                TGI    > 100 µM
 5  O=[N+]([O-])c1ccc2c(c1)[O][Sn]([I])([I])[O]2                TGI    > 100 µM
 6          CN(C)CCCOCCn1c2c(c3ccccc31)CCCC2                TGI     28.3 µM
 7  CCO/C(O)=C(/C(=N)N1CCCC1)C(=O)Nc1cccc(C(F)(F)F)c1                TGI    > 100 µM
 8  COC(=O)C1=C(C(=O)OC)SC(=C(Cl)C(=S)Sc2ccccc2N)S1                TGI     33.2 µM
 9  COc1cc(S(C)(=O)=O)ccc1Nc1nc2ccc(-c3ccc(NC(=O)[C@H](C)c4ccc(F)cc4)cc3)cn2n1                TGI    > 100 µM
10  BrC1(Br)C2/C=C\CCCCC21 (stereo not drawn)                TGI    > 100 µM
11  COc1ccc(C2CC(n3nnnc3-c3ccccc3)=NN2)cc1 (stereo not drawn)                TGI     45.8 µM
12  Fc1cccc(Cl)c1/C=N\N=C1c2ccccc2-c2ccccc21                TGI    > 100 µM
13  CC(C)OP(=O)(OC(C)C)C(C(C)C)N(C)/C(F)=N/C(F)(F)F (stereo not drawn)                TGI    > 100 µM
14       COc1ccc(CN2c3ccccc3CCc3ccccc32)cc1F                TGI    > 100 µM
15  [N-]=[N+]=Nc1ccc(CNc2cc(=O)[nH]c(=O)[nH]2)cc1                TGI    > 100 µM
16  Cc1c(NC2(C)C(=O)N(/N=C/c3ccccc3)N=C2c2ccccc2)n[nH]c1-c1ccccc1 (stereo not drawn)                TGI    > 100 µM
17  COC(=O)CCC1=C(C)/C(=C/c2[nH]c(-c3ccc[nH]3)cc2OC)N=C1C                TGI     1.53 µM
18  COc1cc(C2SCC(=O)N2c2ccc(Oc3ccc(Cl)cc3)c(Cl)c2)cc(OC)c1OC (stereo not drawn)                TGI     35.2 µM
19  O=c1[nH]c(=O)n(C2OC3COC2C3O)cc1F (stereo not drawn)                TGI    > 100 µM
20           Nc1cc(N2CCCC2)nc(=O)n1Cc1ccccc1                TGI    > 100 µM
21   CCOC(=O)CC1NC(=O)CS1 (stereo not drawn)                TGI    > 100 µM
22              CC(=Nc1ccncc1)C(C)=Nc1ccncc1                TGI     49.4 µM
23  CC1CCN(CC(=O)N2c3ccccc3Sc3cc4ccccc4cc32)CC1                TGI    > 100 µM
